For each entry below, report its Population Tubulin-Different-Phenotype (%) value.
- Tested on: Fibroblast
- assay: Multiplex assay against human fibroblast
- Format: toxicity, cell-based
- conditionSummary: 12 h, 10 µM, compound concentration 10 uM, replicate 2
One number for each entry, in %.

These recorded examples may help you get a feel for the data.
> print(dat)
                                   compound  unitstext  measurement
1  Oc1c(CN2CCN(c3ccccn3)CC2)cc(Cl)c2cccnc12          %           62
2  CC1(COc2ccc3c(c2)ncn3-c2ccc3cccc(N4CCC(N)CC4)c3n2)COC1          %           48
3  CN1CCN(c2nc3cc(C(F)(F)F)ccc3n3cccc23)CC1.O=C(O)/C=C\C(=O)O.O=C(O)/C=C\C(=O)O          %           85
4  Cc1ccccc1C(=O)Nc1ccc(C(=O)N2CCCC(N(C)C)c3ccccc32)cc1.Cl (centres undefined)          %           61
5  C[C@H]1[C@H]2CC[C@H]3[C@@H]4CC=C5C[C@@H](N(C)C)CC[C@]5(C)[C@H]4CC[C@]23CN1C          %           58
6  Cc1ccc(F)cc1C(=O)Nc1ccc(C(=O)N2Cc3cccn3Cc3ccccc32)c(Cl)c1          %           72

Would you mind giving Population Tubulin-Different-Phenotype (%) for every compound in the list below?
1. O=C1COc2nccc(-c3ccccc3F)c2CN1Cc1cc(C(F)(F)F)cc(C(F)(F)F)c1
2. COc1cc(NC(=O)CCN2CCC(OC(=O)Nc3ccccc3-c3ccccc3)CC2)c(Cl)cc1CNC[C@H](O)c1ccc(O)c2[nH]c(=O)ccc12
3. O=C(O)c1cc2ccccc2c(Cc2c(O)c(C(=O)O)cc3ccccc23)c1O
4. Cl.Clc1ccc2nsnc2c1NC1=NCCN1 [TIZANIDINE HYDROCHLORIDE]
5. COc1ccc2c(c1)C(C(=O)N(Cc1ccc(N(C)C)cc1)c1ccc(C(C)C)cc1)CCC2.Cl (centres undefined)

[50, 84, 51, 33, 77]

Please look at the items below and tell me Population Tubulin-Different-Phenotype (%) for each one, in order.
1. O=C(O)Cc1ccccc1Nc1c(Cl)cccc1Cl
2. CNC[C@H](O)c1ccc(O)c(O)c1 [EPINEPHRINE]
3. CSc1ccccc1N1CCN(CCCCCC(=O)NC2CCCc3ccccc32)CC1.Cl (centres undefined)

54
55
92

Data origin: ChEMBL document CHEMBL5058577
